target: T1, Human IL-13 with an Fc-tag (human, UniProt P35225 35-146, limits assumed); assay: SPR, BIAcore 8K plus, human IL-13-Fc immobilized on CM5, peptide as analyte, 25 C
T1 construct: Immobilized on CM5 chip (about 5000 RU); also called Interleukin-13; not shown: Fc-tag
T1 sequence (P35225 35-146 limits assumed): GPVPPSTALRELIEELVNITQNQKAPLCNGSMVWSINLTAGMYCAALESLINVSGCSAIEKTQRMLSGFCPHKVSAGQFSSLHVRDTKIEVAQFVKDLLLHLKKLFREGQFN
Square brackets hold non-standard residues; d marks the D form.
measurementLabel: Kd (µM)

INSERT INTO assay_data (binder, unitinfo, observedvalue) VALUES
  ('cyclo(RT[dV]E[dF][dP]) (SMILES CC(C)[C@H]1NC(=O)[C@H]([C@@H](C)O)NC(=O)[C@H](CCCNC(=N)N)NC(=O)[C@H]2CCCN2C(=O)[C@@H](Cc2ccccc2)NC(=O)[C@H](CCC(=O)O)NC1=O) [Compound 2]', 'µM', 17.4);
